Target: T1, Scribble PDZ2 H928A (human, UniProt Q14160 860-950, H928A)
T1 sequence (looked up): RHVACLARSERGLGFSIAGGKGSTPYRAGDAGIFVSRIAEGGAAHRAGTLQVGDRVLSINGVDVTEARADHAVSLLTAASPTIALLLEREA
Experiment: ITC
pKd: −log10 of the molar value.

| Binder | pKd |
| --- | --- |
| RSWFETWV [superpeptide (synthetic pan-PDZ binding peptide)] | 4.56 |

Cited source: paper PMC8038854
